All values here come from paper PMC12171319.

Experiment: in vitro
Details: human, Caco-2, pH 7.4, Recovery A-B in presence of Verapamil, replicate 1
MEASUREMENT_TYPE: recovery at 90 min, 10 µM (%)
One number for each entry, in %.

Assign recovery at 90 min, 10 µM to the following record: CC1CN(c2ccc(NC(=O)C34COCC(c5ccc(OC(F)(F)F)cc5)(C3)C4)cn2)CC(C)O1 (stereo not shown)
53

----------
Assay: Metabolic stability in human liver microsomes
Assay type: in vitro ADME
Details: both sexes, human, liver microsomes, pH 7.4, Table S6, 1st batch; 40 min; no NADPH; read-out: % Remaining without cofactor, Mean of 2
MEASUREMENT_TYPE: remaining at 40 min, 2 µM
Reply with the number, then its unit.

Give remaining at 40 min, 2 µM for CC1CN(c2ccc(NC(=O)C34CCCC(c5ccc(OC(F)(F)F)cc5)(C3)C4)cn2)CC(C)O1 (stereo not shown) [Compound 50]
93%

----------
Experiment: in vitro
Details: human, Caco-2, pH 7.4, Papp (BA), Mean, 10 µM, 90 min, no verapamil
MEASUREMENT_TYPE: Papp B→A (×10⁻⁶ cm/s)
Numbers only, in ×10⁻⁶ cm/s.

Report measured Papp B→A; entry is CC(C(=O)O)c1cccc(C(=O)c2ccccc2)c1 (stereo not shown) [Ketoprofen]
18.7

----------
Experiment: in vitro
Details: human, Caco-2, pH 7.4, Papp (AB), Mean
MEASUREMENT_TYPE: Papp A→B at 90 min, 10 µM (×10⁻⁶ cm/s)
Answers are plain numbers, in ×10⁻⁶ cm/s.

Find the measured Papp A→B at 90 min, 10 µM of CC1CN(c2ccc(NC(=O)C34COCC(c5ccc(OC(F)(F)F)cc5)(C3)C4)cn2)CC(C)O1 (stereo not shown) and report it.
5.4

----------
For each record, write down the corresponding solubility at 2 h.
Assay: Kinetic solubility in phosphate-buffered saline, pH 7.4
Assay type: physicochemical
Conditions: 25 °C, pH 7.4, aqueous buffer, kinetic from dmso stock, PBS solubility, pH 7.4, Incubation 2
Method: page 239: 7. […] The data […] analysis software. […] page 240: Methods Kinetic solubility assay was performed according to Enamine's aqueous solubility SOP. Briefly, […] theoretical concentration of 400 μM in duplicates in phosphate-buffered saline pH 7.4 […] […] 200 μL of each sample was transferred to a 96-well plate and measured in the 230-550 nm range with a 5 nm step. The concentrations of compounds in PBS filtrate are calculated using a dedicated Microsoft Excel calculation script. […]
Numbers only, in µM.

For orientation, consider the following solved cases.
Give solubility at 2 h for `Cc1c(C(=O)Nc2ccc(N3C[C@@H](C)O[C@@H](C)C3)nc2)cccc1-c1ccc(OC(F)(F)F)cc1`
6

Identify solubility at 2 h associated with the molecule CC1CN(c2ccc(NC(=O)C34COCC(c5ccc(OC(F)(F)F)cc5)(C3)C4)cn2)CC(C)O1 (stereo not shown)
34

// Input: Cc1nccn1CC1CCc2c(c3ccccc3n2C)C1=O (stereo not shown) . Output its solubility at 2 h only.
124

---
Please supply the value of reported solubility at 2 h for the item CC1CN(c2ccc(NC(=O)C34CCCC(c5ccc(OC(F)(F)F)cc5)(C3)C4)cn2)CC(C)O1 (stereo not shown)
3

----------
Test: Metabolic stability in human liver microsomes
Type: in vitro ADME
Conditions: both sexes, human, liver microsomes, pH 7.4; Table S7, 2nd batch; read-out: t1/2
MEASUREMENT_TYPE: half-life at 2 μM (h)
Give bare numbers, in h.

Name the recorded half-life at 2 μM of the item `Cc1c(C(=O)Nc2ccc(N3C[C@@H](C)O[C@@H](C)C3)nc2)cccc1-c1ccc(OC(F)(F)F)cc1` in your answer.
1.73

----------
Test: in vitro
Conditions: human, Caco-2, pH 7.4, Papp (BA), replicate 1, 10 µM, 90 min, no verapamil
MEASUREMENT_TYPE: Papp B→A at 90 min, 10 µM (×10⁻⁶ cm/s)
One number for each entry, in ×10⁻⁶ cm/s.

Retrieve Papp B→A at 90 min, 10 µM measured for `Cc1c(C(=O)Nc2ccc(N3C[C@@H](C)O[C@@H](C)C3)nc2)cccc1-c1ccc(OC(F)(F)F)cc1` and print it.
1

----------
Assay: in vitro
Conditions: human, Caco-2, pH 7.4, Papp (BA), replicate 2, 10 µM, 90 min, no verapamil
MEASUREMENT_TYPE: Papp B→A
Reply with the number and its unit after it.

Specify reported Papp B→A for the compound shown: CC(C(=O)O)c1cccc(C(=O)c2ccccc2)c1 (stereo not shown)
17.9 ×10⁻⁶ cm/s

----------
Test: in vitro
Conditions: human, Caco-2, pH 7.4, Papp (AB), replicate 1, 10 µM, 90 min, no verapamil
MEASUREMENT_TYPE: Papp A→B (×10⁻⁶ cm/s)
One number for each entry, in ×10⁻⁶ cm/s.

For the compound CC(C(=O)O)c1cccc(C(=O)c2ccccc2)c1 (stereo not shown) [Ketoprofen] , give its measured Papp A→B value.
19.8

----------
Please respond with reported remaining at 25 min, 2 µM for every item in the list.
Assay: Metabolic stability in human liver microsomes
Format: in vitro ADME
Conditions: both sexes, human, liver microsomes, pH 7.4, Table S7, 2nd batch; 25 min; 2 µM
Give bare numbers, in %.

Determine its reported remaining at 25 min, 2 µM: Cc1c(C(=O)Nc2ccc(N3C[C@@H](C)O[C@@H](C)C3)nc2)cccc1-c1ccc(OC(F)(F)F)cc1 [Sonidegib]
89

Lab note: next compound to report on.
Read off the recorded remaining at 25 min, 2 µM for CC1CN(c2ccc(NC(=O)C34COCC(c5ccc(OC(F)(F)F)cc5)(C3)C4)cn2)CC(C)O1 (centres unmarked) [Compound 51]
77

----------
Kindly supply the reported half-life at 2 μM values for the records listed here.
Assay: Metabolic stability in human liver microsomes
Format: in vitro ADME
Settings: both sexes, human, human liver microsomes, pH 7.4, human liver microsomes; read-out: t1/2: experimental half-time of a metabolic decomposition
Write the numeric value and follow it with the unit.

Illustrative cases are given below, each with its answer.
Fill in reported half-life at 2 μM for this entry: `Cc1c(C(=O)Nc2ccc(N3C[C@@H](C)O[C@@H](C)C3)nc2)cccc1-c1ccc(OC(F)(F)F)cc1`
1.73 h

# return recorded half-life at 2 μM for input CC1CN(c2ccc(NC(=O)C34COCC(c5ccc(OC(F)(F)F)cc5)(C3)C4)cn2)CC(C)O1 (stereo not drawn)
1.02 h

Would you kindly look at the next entry?
Look up half-life at 2 μM of CC1CN(c2ccc(NC(=O)C34CCCC(c5ccc(OC(F)(F)F)cc5)(C3)C4)cn2)CC(C)O1 (stereo not drawn) and report it.
2 h

----------
Assay: in vitro
Conditions: human, Caco-2, pH 7.4, Recovery A-B, replicate 1, no verapamil
MEASUREMENT_TYPE: recovery at 90 min, 10 µM (%)
Numbers only, in %.

Find the measured recovery at 90 min, 10 µM of `Cc1c(C(=O)Nc2ccc(N3C[C@@H](C)O[C@@H](C)C3)nc2)cccc1-c1ccc(OC(F)(F)F)cc1` and report it.
35

----------
Exercise: state measured logD at 1 h for each of the molecules provided.
Test: physchem
Settings: pH 7.4, logD (7.4): experimental distribution coefficient in n-octanol/phosphate-buffered saline, pH 7.4

Answered cases to consult:
Could you please provide reported logD at 1 h for Cc1c(C(=O)Nc2ccc(N3C[C@@H](C)O[C@@H](C)C3)nc2)cccc1-c1ccc(OC(F)(F)F)cc1 [Sonidegib] ? Thanks!
≥ 4

Note down logD at 1 h recorded for CC1CN(c2ccc(NC(=O)C34CCCC(c5ccc(OC(F)(F)F)cc5)(C3)C4)cn2)CC(C)O1 (stereo not drawn) [Compound 50]
≥ 4

Query molecule follows.
Return logD at 1 h (reported value) for this molecule: CC1CN(c2ccc(NC(=O)C34COCC(c5ccc(OC(F)(F)F)cc5)(C3)C4)cn2)CC(C)O1 (stereo not drawn) [Compound 51]
≥ 4

----------
Experiment: in vitro
Conditions: human, Caco-2, pH 7.4, Papp (BA), replicate 2, 10 µM, 90 min, no verapamil
MEASUREMENT_TYPE: Papp B→A at 90 min, 10 µM (×10⁻⁶ cm/s)
One number for each entry, in ×10⁻⁶ cm/s.

Dear colleague, please send me the reported Papp B→A at 90 min, 10 µM for `Cc1c(C(=O)Nc2ccc(N3C[C@@H](C)O[C@@H](C)C3)nc2)cccc1-c1ccc(OC(F)(F)F)cc1` when you can.
0.9

----------
Test: in vitro
Settings: human, Caco-2, pH 7.4, Recovery A-B, Mean, no verapamil
MEASUREMENT_TYPE: recovery at 90 min, 10 µM (%)
Give bare numbers, in %.

Let me know recorded recovery at 90 min, 10 µM for Cc1c(C(=O)Nc2ccc(N3C[C@@H](C)O[C@@H](C)C3)nc2)cccc1-c1ccc(OC(F)(F)F)cc1 [Sonidegib] , thanks.
36

----------
Assay: in vitro
Conditions: human, Caco-2, pH 7.4, Papp (AB), replicate 2
MEASUREMENT_TYPE: Papp A→B at 90 min, 10 µM

Return Papp A→B at 90 min, 10 µM for the following compound: CC1CN(c2ccc(NC(=O)C34COCC(c5ccc(OC(F)(F)F)cc5)(C3)C4)cn2)CC(C)O1 (stereo not shown)
4.5 ×10⁻⁶ cm/s
